The following molecules are listed with their measured inhibition at 10 µM values.
- Tested On: B1R receptor of the rat (Rattus norvegicus, UniProt P97583)
- Construct: host or cells: CHO K1 cells (Chinese hamster ovary), stably transfected
- Sequence (P97583 whole entry): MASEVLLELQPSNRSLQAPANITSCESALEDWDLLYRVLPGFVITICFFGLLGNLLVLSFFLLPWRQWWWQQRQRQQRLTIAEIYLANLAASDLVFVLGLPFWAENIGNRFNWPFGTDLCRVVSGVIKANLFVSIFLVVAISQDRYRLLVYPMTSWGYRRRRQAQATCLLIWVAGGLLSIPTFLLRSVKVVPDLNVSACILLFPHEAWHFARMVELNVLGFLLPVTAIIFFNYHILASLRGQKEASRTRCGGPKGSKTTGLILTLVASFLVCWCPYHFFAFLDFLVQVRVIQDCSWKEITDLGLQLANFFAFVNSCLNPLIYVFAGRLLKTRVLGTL
- Protocol Details: Functional study on the bradykinin receptor 1 (B1R), FLIPR Ca2+ assay, rB1R cells
- Format: cell-based
- Test Parameters: CHO-K1, test substance 10 μM, agonist Des-Arg9-bradykinin 100 nM, % inhibition compared with the maximum achievable inhibition, read-out: B1R Antagonism, rat [10 μM] % Inhibition
Write down the numeric answer in % and omit the unit.

Examples with their reported inhibition at 10 µM follow.
{"columns": ["Molecule", "inhibition at 10 µM / %"],
 "data": [
  ["CN1CCN(C(=O)COCC2CCCCN2S(=O)(=O)c2c(Cl)cc(Cl)cc2Cl)CC1 (stereo not shown)", 101],
  ["COc1ccc(CN2CCN(C(=O)COCC3CCCN3S(=O)(=O)c3c(Cl)cccc3Cl)CC2)cc1 (stereo not shown)", 99.2],
  ["O=C(COCC1CCCCN1S(=O)(=O)c1ccc(Cl)c(Cl)c1)N1CCC(CCN2CCCCC2)CC1 (stereo not shown)", 86.4]
]}

The value of inhibition at 10 µM measured for the molecule O=C(COCC1Cc2ccccc2N1S(=O)(=O)c1ccc(Cl)c(Cl)c1)NCc1ccc(CN2CCCC2)cc1 (stereo not shown) turned out to be 34.1

Value of inhibition at 10 µM reported for the molecule CN1CCN(c2ccc(CNC(=O)COCC3CCCCN3S(=O)(=O)c3c(Cl)cc(Cl)cc3Cl)cc2)CC1 (stereo not shown) is 113

The value of inhibition at 10 µM measured for the molecule COc1cc(C)c(S(=O)(=O)N2CCCC2COCC(=O)N2CCCC2Cc2ccccn2)c(C)c1 (stereo not shown) turned out to be 94.2

Short answer for COc1cc(C)c(S(=O)(=O)N2CCCCC2COCC(=O)N2CCN(c3ccc4c(N5CCCC5)ncnc4c3)CC2)c(C)c1 (stereo not shown) : inhibition at 10 µM was 98.4

----------
- Tested On: B1R receptor of the rat (Rattus norvegicus, UniProt P97583)
- Construct: host or cells: CHO K1 cells (Chinese hamster ovary), stably transfected
- Protocol Details: Functional study on the bradykinin receptor 1 (B1R), FLIPR Ca2+ assay, rB1R cells
- Assay type: cell-based
- Test Parameters: CHO-K1, test substance 10 μM, agonist Des-Arg9-bradykinin 100 nM, % inhibition compared with the maximum achievable inhibition, read-out: B1R Antagonism, rat [10 μM] % Inhibition
Endpoint Label: inhibition at 10 µM (%)
Only the number, expressed in %, is required.

{"columns": ["Molecule", "Tested On", "Readout Units", "inhibition at 10 µM"],
 "data": [
  ["Cc1cc(C)c(S(=O)(=O)N2Cc3ccccc3CC2COCC(=O)N2CCCN(Cc3ccccc3)CC2)c(C)c1 (stereo not shown)", "B1R receptor of the rat (Rattus norvegicus, UniProt P97583)", "%", 80.5],
  ["CCN(Cc1ccncc1)C(=O)COCC1CCCCN1S(=O)(=O)c1c(Cl)cccc1Cl (stereo not shown)", "B1R receptor of the rat (Rattus norvegicus, UniProt P97583)", "%", 102],
  ["COc1cc(C)c(S(=O)(=O)N2CCCC2COCC(=O)N2CCN(CCc3ccccc3)CC2)c(C)c1 (stereo not shown)", "B1R receptor of the rat (Rattus norvegicus, UniProt P97583)", "%", 102]
]}

Then this molecule:
Consider O=C(COCC1CCCCN1S(=O)(=O)c1ccc(Cl)c(Cl)c1)N1CCC(Cc2ccccc2)CC1 (stereo not shown) . Its measured inhibition at 10 µM is 0

----------
- Tested On: human B1R receptor (Homo sapiens)
- Construct: host or cells: CHO K1 cells (Chinese hamster ovary), stably transfected
- Sequence (P46663 1-353): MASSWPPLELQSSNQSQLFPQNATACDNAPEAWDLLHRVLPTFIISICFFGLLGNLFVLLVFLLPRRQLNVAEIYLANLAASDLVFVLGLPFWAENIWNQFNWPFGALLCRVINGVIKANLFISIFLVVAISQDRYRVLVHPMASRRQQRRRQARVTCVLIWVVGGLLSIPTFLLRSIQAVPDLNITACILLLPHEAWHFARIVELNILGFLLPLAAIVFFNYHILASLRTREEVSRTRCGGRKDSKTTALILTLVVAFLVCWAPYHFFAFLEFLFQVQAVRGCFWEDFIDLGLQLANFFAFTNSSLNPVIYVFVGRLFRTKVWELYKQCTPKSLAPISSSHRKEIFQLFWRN
- Protocol Details: Functional study on the bradykinin receptor 1 (B1R), FLIPR Ca2+ assay, hB1R cells
- Type: cell-based
- Test Parameters: CHO-K1, test substance 10 μM, agonist Lys-Des-Arg9-bradykinin 0.5 nM, % inhibition compared with the maximum achievable inhibition, read-out: B1R Antagonism, human [10 μM] % Inhibition
Endpoint Label: inhibition at 10 µM (%)
Report as a plain number; the unit % is understood.

{"columns": ["Compound", "Tested On", "Result Value"],
 "data": [
  ["CN(CCC1CCC(N2CCCC2)CC1)C(=O)COCC1CCc2ccccc2N1S(=O)(=O)c1ccc(Cl)c(Cl)c1 (stereo not drawn)", "human B1R receptor (Homo sapiens)", -10.1]
]}

COc1cc(C)c(S(=O)(=O)N2CCCCC2COCC(=O)NCc2ccc(CN3CCOCC3)cc2)c(C)c1 (stereo not drawn) has a reported inhibition at 10 µM of 92.2

For O=C(COCC1CCCN1S(=O)(=O)c1c(Cl)cccc1Cl)N1CCN(c2cccc(Cl)c2)CC1 (stereo not drawn) the compound record lists inhibition at 10 µM as 62.5

----------
- Tested On: B1R receptor of the rat (Rattus norvegicus)
- Construct: host or cells: CHO K1 cells (Chinese hamster ovary), stably transfected
- Protocol Details: Functional study on the bradykinin receptor 1 (B1R), FLIPR Ca2+ assay, rB1R cells
- Type: cell-based
- Test Parameters: CHO-K1, test substance 10 μM, agonist Des-Arg9-bradykinin 100 nM, % inhibition compared with the maximum achievable inhibition, read-out: B1R Antagonism, rat [10 μM] % Inhibition
Where a name gives a salt, the structure may show the parent alone.
Here, each record is paired with measured inhibition at 10 µM data.
Note: unit % is implicit; provide only the numeric part.

Known inhibition at 10 µM results, listed for orientation:
{"columns": ["Compound", "Readout Units", "inhibition at 10 µM"],
 "data": [
  ["COc1cc(C)c(S(=O)(=O)N2CCCCC2COCC(=O)N2CCCC2c2ccccn2)c(C)c1 (centres unmarked)", "%", 96.8],
  ["COc1cc(C)c(S(=O)(=O)N2CCCCC2COCC(=O)Nc2cccc(N3CCCCC3)c2)c(C)c1 (centres unmarked)", "%", 99.5],
  ["COc1cc(C)c(S(=O)(=O)N2CCCCC2COCC(=O)N2CCC(c3ccncc3)C2)c(C)c1 (centres unmarked)", "%", 99.3],
  ["O=C(COCC1CCCN1S(=O)(=O)c1c(Cl)cc(Cl)cc1Cl)N1CCN(c2ccncc2)CC1 (centres unmarked)", "%", 99.8],
  ["COc1cc(C)c(S(=O)(=O)N2CCCC2COCC(=O)NCCCN2CCN(Cc3ccccc3)CC2)c(C)c1 (centres unmarked)", "%", 99.3]
]}

Entry COc1cc(C)c(S(=O)(=O)N2CCCCC2COCC(=O)N2CCC(CCN3CCCC3)CC2)c(C)c1 (centres unmarked) [Example 94, hydrochloride] , tested on B1R receptor of the rat (Rattus norvegicus), has a reported inhibition at 10 µM of 103

Record for COc1cc(C)c(S(=O)(=O)N2CCCC2COCC(=O)N2CCC(CCN3CCCC3)CC2)c(C)c1 (centres unmarked) under target or system B1R receptor of the rat (Rattus norvegicus): inhibition at 10 µM reported as 101

Sample COc1cc(C)c(S(=O)(=O)N2CCCC[C@H]2COCC(=O)N2CCC(Oc3ccncc3)CC2)c(C)c1 [Example 186, hydrochloride] , system: B1R receptor of the rat (Rattus norvegicus). Its inhibition at 10 µM is 97.1

Item O=C(COCC1Cc2ccccc2CN1S(=O)(=O)c1ccc(Cl)cc1Cl)N1CCC(N2CCOCC2)CC1 (centres unmarked) was tested on B1R receptor of the rat (Rattus norvegicus); the reported inhibition at 10 µM is 93.2

Measured on B1R receptor of the rat (Rattus norvegicus), COc1cc(C)c(S(=O)(=O)N2CCCCC2COCC(=O)Nc2cc(-c3cccc(F)c3)[nH]n2)c(C)c1 (centres unmarked) has a documented inhibition at 10 µM of 107

Measured inhibition at 10 µM for this entry COc1cc(C)c(S(=O)(=O)N2CCCCC2COCC(=O)N2CCN(c3ccc(C)c(C)c3)CC2)c(C)c1 (centres unmarked) on B1R receptor of the rat (Rattus norvegicus): 102

# COc1cc(C)c(S(=O)(=O)N2CCCC2COCC(=O)N2CCN(c3ccccc3)CC2)c(C)c1 (centres unmarked) with B1R receptor of the rat (Rattus norvegicus): inhibition at 10 µM is 99.1

For Cc1cccc(Cl)c1S(=O)(=O)N1CCC[C@H]1COCC(=O)N1CCC(CCN2CCCC2)CC1 [Example 161, hydrochloride] on B1R receptor of the rat (Rattus norvegicus), measured inhibition at 10 µM was 99.2

The measured inhibition at 10 µM that O=C(COCC1CCCCN1S(=O)(=O)c1c(Cl)cccc1Cl)N1CCN(c2ccc(F)cc2)CC1 (centres unmarked) showed for B1R receptor of the rat (Rattus norvegicus) is 102
